system: HLA-B*07:02 (human)
experimentDescription: radioligand competition, purified MHC
pIC50: −log10 of the molar value.
List of pIC50 values.
reportedMetric: pIC50

- STSAFVETV (modifications not checked) [… (SEQ ID NO: 19)]: 5.05
- YLNSTNVTI (modifications not checked) [… (SEQ ID NO: 24)]: 5.10
- APRITFGGP (modifications not checked) [… (SEQ ID NO: 42)]: 7.23
